Just for reference, PubChem BioAssay is where these values come from.

Assay: VP16 transactivation reporter inhibitors, counter-screen for LRH-1 inverse agonist project, cell-based, luminescence, high throughput (AID 651615)
Conditions: Gal4-VP16 luciferase reporter cells, at 3.6 µM
The source made the active and inactive calls. Cut-off read from the data, not from the text of the source: active = inhibition above about 33%; inactive = the rest.
Your reply should match one of these outcome classes. active, inactive

How was O=C(CSc1n[nH]c(-c2ccccc2)n1)Nc1ccc(N2CCOCC2)cc1 classified in this test? inactive

N=c1c2c(n(Cc3ccc(F)cc3)c3c1CCC3)CCC2 ? active

O=C(NC1CCCC(C(F)(F)F)C1)c1ccc([N+](=O)[O-])o1 (stereo not drawn) ? inactive

---

Target: Nuclear receptor coactivator 2 (Homo sapiens) (UniProt Q15596)
Sequence (Q15596 whole entry, looked up): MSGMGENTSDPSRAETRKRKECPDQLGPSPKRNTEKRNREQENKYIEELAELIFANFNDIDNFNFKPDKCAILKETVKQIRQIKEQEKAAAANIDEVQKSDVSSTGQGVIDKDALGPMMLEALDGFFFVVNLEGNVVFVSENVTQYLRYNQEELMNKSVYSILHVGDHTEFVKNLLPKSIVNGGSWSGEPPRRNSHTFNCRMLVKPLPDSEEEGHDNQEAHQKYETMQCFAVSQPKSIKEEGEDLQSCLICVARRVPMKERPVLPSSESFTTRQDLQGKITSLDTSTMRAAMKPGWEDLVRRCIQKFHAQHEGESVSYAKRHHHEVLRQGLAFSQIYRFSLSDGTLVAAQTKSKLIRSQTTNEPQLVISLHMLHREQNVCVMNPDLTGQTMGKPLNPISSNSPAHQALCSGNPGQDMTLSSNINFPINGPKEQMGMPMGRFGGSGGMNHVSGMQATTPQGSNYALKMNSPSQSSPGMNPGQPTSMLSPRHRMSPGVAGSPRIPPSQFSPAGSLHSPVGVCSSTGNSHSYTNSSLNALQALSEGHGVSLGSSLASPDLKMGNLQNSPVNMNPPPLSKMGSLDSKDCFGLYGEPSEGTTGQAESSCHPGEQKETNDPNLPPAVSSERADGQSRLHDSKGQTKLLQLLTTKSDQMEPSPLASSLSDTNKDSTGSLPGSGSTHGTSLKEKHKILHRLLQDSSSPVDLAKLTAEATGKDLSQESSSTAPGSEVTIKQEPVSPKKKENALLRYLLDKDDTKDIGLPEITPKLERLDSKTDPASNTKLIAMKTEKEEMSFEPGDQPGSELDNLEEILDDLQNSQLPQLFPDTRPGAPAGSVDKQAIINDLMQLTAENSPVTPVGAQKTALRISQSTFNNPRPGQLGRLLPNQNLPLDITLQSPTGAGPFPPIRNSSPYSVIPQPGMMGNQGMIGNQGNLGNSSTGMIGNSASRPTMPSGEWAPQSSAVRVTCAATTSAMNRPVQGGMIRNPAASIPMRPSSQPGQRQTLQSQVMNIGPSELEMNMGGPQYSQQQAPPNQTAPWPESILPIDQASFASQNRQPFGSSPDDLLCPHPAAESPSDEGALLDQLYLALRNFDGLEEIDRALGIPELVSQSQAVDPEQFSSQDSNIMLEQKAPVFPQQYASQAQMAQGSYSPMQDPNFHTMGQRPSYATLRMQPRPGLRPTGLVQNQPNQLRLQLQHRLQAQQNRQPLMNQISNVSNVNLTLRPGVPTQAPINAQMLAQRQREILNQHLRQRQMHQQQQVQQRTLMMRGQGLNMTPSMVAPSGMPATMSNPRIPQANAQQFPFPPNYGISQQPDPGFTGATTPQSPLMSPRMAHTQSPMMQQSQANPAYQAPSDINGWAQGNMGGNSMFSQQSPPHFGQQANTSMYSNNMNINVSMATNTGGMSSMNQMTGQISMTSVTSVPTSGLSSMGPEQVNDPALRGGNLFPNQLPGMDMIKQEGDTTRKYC
Experiment: SRC2 coactivator transcriptional activity inhibitors, confirmation, cell-based, luminescence, HEK293, triplicate (AID 652008);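 note: 0% = DMSO-treated cells and 100% = Gossypol at 36 µM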
Details: HEK293 GAL4-SRC2 luciferase reporter, at 8.9 µM, hits give high values
measured.parameter: inhibition (%)
Respond numerically; units are % and should not be typed.

Field request: inhibition | item: CC1CCc2nc(NC(=O)c3ccco3)sc2C1 (stereo not drawn) 11.1

CCOC(=O)Cn1c(=O)c2c(nc(N3CCCCC3)n2Cc2ccccc2)n(C)c1=O ? 4.93

O=C(N/N=C/c1c(O)ccc2ccccc12)c1cccnc1 ? 20.7

---

Please respond with reported inhibition for every item in the list.
Tested on: transactivating tegument protein VP16 (Human herpesvirus 1), Gal4-VP16 luciferase reporter
Assay: VP16 transactivation inhibitors, counter-screen for SRC3 inhibitor project, cell-based, luminescence, high throughput (AID 588794)
Details: mammalian cells, VP16-driven luciferase reporter luminescence; at 3.6 µM; hits give high values
Activity calls are given as the source filed them. Cut-off read from the data, not from the text of the source: active = inhibition above about 30%; inactive = the rest.

Field request: inhibition | item: CCCCC(=O)NC(c1ccc(N(C)C)cc1)c1ccc2cccnc2c1O (stereo unspecified) 43.9% (active)

CSc1ncnc2c1ncn2CC(=O)C1CCC2C3CCC4=CC(=O)CCC4(C)C3CCC12C (stereo unspecified) ? 12.2% (inactive)

Cc1ccc(-c2nnn(CC(=O)N(Cc3cccs3)C(C(=O)NC3CCCC3)c3ccncc3)n2)cc1 (stereo unspecified) ? 35.2% (active)

COc1ccc(OC)c(/C=C/c2ccnc3ccccc23)c1 ? 54.2% (active)

CCc1ccc(/C=C/C(=O)c2c(C)cc(C)[nH]c2=O)cc1 ? 50.1% (active)

CCOc1ccc(S(=O)(=O)N2CCN(C(=O)COc3ccc(Br)cc3)CC2)cc1 ? 14.7% (inactive)

CCCCC(=O)NC(c1cccs1)c1cc(Cl)c2cccnc2c1O (stereo unspecified) ? 40.6% (active)

CCOc1ccccc1/C=C/c1onc(C)c1S(=O)(=O)N1CCC(C(=O)N(CC)CC)CC1 ? 3.37% (inactive)

Cc1[nH]n(C)c(=O)c1N=Nc1ccc(S(C)(=O)=O)cc1 ? -1.15% (inactive)

Cc1cccc(NNC(=O)C(=O)NNc2cccc(C)c2)c1 ? 24.3% (inactive)

Cn1c(=O)n(C)c2cc(NS(=O)(=O)c3ccc(C(C)(C)C)cc3)ccc21 ? 14.9% (inactive)

---

Assay: StAR promoter reporter inhibitors, counter-screen for LRH-1 inverse agonist project, cell-based, luminescence, high throughput (AID 651611)
Conditions: StAR promoter luciferase reporter counterscreen, at 3.6 µM, hits give high values
Please respond with reported inhibition for every item in the list.
Respond numerically; units are % and should not be typed.

Field request: inhibition | item: CCOc1cc(/C=N/Nc2nnc(C)n2N)ccc1O -6

CC[n+]1ccccc1/C=C1\Sc2ccc(C)cc2N1C ? 40

Cc1ccc(C(=O)N/N=C/c2c(O)ccc3ccccc23)cn1 ? 84.8

Cc1ccc(S(=O)(=O)/C(=C/Cl)NC(=O)c2ccccc2)cc1 ? 42.9

CCCc1cc(=O)oc2c(C)c(OCC(=O)NC3CC(C)(C)NC(C)(C)C3)ccc12 ? 6.86

COc1ccc(/C=C/c2cc(-c3ccc(C)cc3)o[n+]2C)cc1 ? 62.3

Cc1ccc(CNC(=O)COc2ccc(C(=O)c3ccc(F)cc3)cc2)cc1 ? 17.6

Cc1nc(N)nc(N)c1/C=C/C(C)(C)c1ccc(Cl)cc1 ? 78.5

COc1ccc2cc3c(N)nn(C(=O)c4ccccc4[N+](=O)[O-])c3nc2c1 ? 44.6

Cc1cc2ncn(/N=C/c3ccc([N+](=O)[O-])s3)c2cc1C ? 12.7

CCC(NC(=O)CCl)c1ccc(C)cc1 (centres undefined) ? 29.5

COc1ccc(NC(=O)CSc2nnc3ccc(-c4cccnc4)nn23)cc1OC ? 7.32

CCOc1cc(/C=C2/C(=N)N3OC(C)=CC3=NC2=O)ccc1OCCOc1ccccc1 ? 5.5

O=C(N/N=C/c1ccc([N+](=O)[O-])s1)c1cccnc1 ? 13.9

CCc1ccc(-n2cc(-c3ccc(F)cc3)[n+]3c2SCCC3)cc1 ? 18.4

CC(Oc1ccc(S(=O)(=O)N2CCCC2)cc1[N+](=O)[O-])C(=O)NC(C)c1ccccc1 (centres undefined) ? 4.94

O=[N+]([O-])c1ccc(N2CCCC2)cc1N1CCCC1 ? 9.77

COC(=O)/C=C/C(=O)Nc1cccc(C(F)(F)F)c1 ? 46.8

Cc1nc2cc(N3CCCCC3)c(NC(=O)c3cccnc3)cc2c(=O)n1Cc1ccccc1 ? 10.7

O=C(COc1ccc2c(-c3ccccc3)cc(=O)oc2c1)NCCCn1ccnc1 ? 9.33

Cc1ccc(NC2=C(N3CCCCC3)C(=O)c3ccccc3C2=O)cc1 ? -37.9

Cn1nccc1C(=O)N/N=C/c1c(O)ccc2ccccc12 ? 82.4

Cc1cc(C(=O)NC2CCCc3c2cnn3-c2ccc(C)c(C)c2)n(C)n1 (centres undefined) ? 33.4

C#CCSc1nsc(SCC#C)c1C#N ? 3.79

O=C(CSc1n[nH]c(-c2ccccc2)n1)Nc1ccc(N2CCOCC2)cc1 ? 1.99

CCOc1ccc(OCCN2C(=O)NC(Cc3c[nH]c4ccccc34)C2=O)cc1 (centres undefined) ? 13.2

O=C(Nc1ccc(N2CCOCC2)c(Cl)c1)c1ccc([N+](=O)[O-])o1 ? -80.2

CC(=NNC(=S)N1CCN(c2ccccn2)CC1)c1nccs1 ? 82.9

O=C1CC(c2cccc([N+](=O)[O-])c2)c2ccc3ccccc3c2N1 (centres undefined) ? 11.8
